subject-of-test: OBP13
method-summary: competitive fluorescence binding assay
reported-metric: Ki
Please append the unit to your numeric answer.

Prompt line: Which measured Ki value corresponds to C=Cc1ccc(OC)cc1 [4VA, 4-vinylanisole] ?
Response line: 3.46 µM

---

subject-of-test: OBP13
method-summary: fluorescence titration, Scatchard analysis
reported-metric: Kd (µM)
Answers are plain numbers, in µM.

Prompt line: // query Kd value for entry `c1ccc(Nc2cccc3ccccc23)cc1`
Response line: 13.8
